Hi there, I'd appreciate the recorded Activity for every entry that follows.
Tested on: hTERT-BJ
measurement description: Cytotoxicity against hTERT-BJ cells at 12.50 uM after 48 hrs by resazurin dye-based fluorescence assay relative to control
Type: cell-based
particulars: human, 12.5 µM
Give bare numbers, in %.

Dear colleague, could you please provide Activity for the compounds listed below?
1. CCOc1ccc(NC(=O)c2cc3cc(Br)ccc3oc2=O)cc1
2. CCOc1ccc2nc(Cl)c(/C=N/NC(=O)c3cc4ccccc4oc3=O)cc2c1
3. Cc1noc(NS(=O)(=O)c2ccc(NC(=O)c3cc4ccccc4oc3=O)cc2)c1C
4. O=C(N/N=C/c1ccncc1)c1cc2cc([N+](=O)[O-])ccc2oc1=O
5. O=C(N/N=C/c1ccncc1)c1cc2ccccc2oc1=O

1: 1.19; 2: 5.65; 3: 10.4; 4: 5.5; 5: 1.23
